Parameter: TGI. Scope: all listed entries.
Tested on: M14 melanoma
procedure details: NCI tumour cell line growth inhibition, 48 h
Unit µM implied. Number only.

COc1ccc(C(O)(c2ccccc2)c2nccc3ccccc23)cc1 (stereo not given) ... 8.34
Cc1ccc(NC(=O)c2cc3ccccc3c(N=Nc3cc(S(=O)(=O)O)ccc3O)c2O)c(C)c1 ... 37.4
Cn1cc(C2=C(c3c4n(c5ccccc35)CCC(CN)C4)C(=O)NC2=O)c2ccccc21 (stereo not given) ... 7.58

Then there is this molecule:
According to the records, this molecule `CN(C)CCCSc1nc2c(c(=N)n1-c1ccccc1)c(=S)n(-c1ccccc1)c(=S)n2-c1ccccc1` displays TGI of 3.76

====

System: K-562 leukemia
procedure details: NCI tumour cell line growth inhibition, 48 h
property label: TGI

# TGI measured on K-562 leukemia for item `CN(C)CCCSc1nc2c(c(=N)n1-c1ccccc1)c(=S)n(-c1ccccc1)c(=S)n2-c1ccccc1` = 3.81 µM

# TGI measured on K-562 leukemia for item `C/C(=N\NC(=S)NCCCCNC(=S)N/N=C(\C)c1ccccn1)c1ccccc1` = > 100 µM

# TGI measured on K-562 leukemia for item O=C(O)C(C(=O)O)P(=S)(S)c1ccccc1 (centres undefined) = > 100 µM

# TGI measured on K-562 leukemia for item `c1ccc2cc(NCNc3ccc4ccccc4c3)ccc2c1` = 38.8 µM

# TGI measured on K-562 leukemia for item `COc1ccc(Cn2cc3c(c2-c2ccccc2)CCc2cnoc2-3)cc1OC` = > 100 µM

# TGI measured on K-562 leukemia for item CN1CCC2(CC1)NC(=O)c1c(c3ccc(Cl)c(Cl)c3n1C)C2C#N (centres undefined) = > 100 µM

# TGI measured on K-562 leukemia for item `C#CCN(Cc1nc2cc(C(F)(F)F)ccc2nc1-c1ccccc1)c1ccc(C)cc1` = > 100 µM

# TGI measured on K-562 leukemia for item `COc1ccc2c(c1)CC[C@@H]1[C@@H]2CC[C@]2(C)c3c(cc(C(=O)O)c4sccc34)C[C@@H]12` = 20.9 µM

# TGI measured on K-562 leukemia for item COc1ccc(-c2c3c(n(C4OC(COC(C)=O)C(OC(C)=O)C(OC(C)=O)C4OC(C)=O)c(=S)c2C#N)CCC3)cc1 (centres undefined) = > 100 µM

====

Test system: A498 renal
procedure details: NCI tumour cell line growth inhibition, 48 h
property label: TGI

Cn1c(=O)c2c(nc3sc4c(n32)C(=O)c2c(O)ccc(O)c2C4=O)n(C)c1=O ... 57.4 µM
O=C(/C(=C/c1ccc([N+](=O)[O-])cc1)SCc1ccc(Cl)cc1)c1ccc(F)cc1 ... 38.4 µM
CC(=O)O[C@@H]1C(=O)N(c2ccccc2)[C@@H]1c1cc2ccccc2c2ccccc12 ... > 100 µM

Then there is this molecule:
According to the records, this molecule `[Cl][Hg][c]1ccc(Cl)s1` displays TGI of 31.2 µM

====

Parameter: TGI. Scope: all listed entries.
System: K-562 leukemia
procedure details: NCI tumour cell line growth inhibition, 48 h
Unit µM implied. Number only.

Examples with their reported TGI follow.
Cc1ccc2c(c1)c(Sc1ccc(C(=O)NO)cc1)c1n2CN(C)CC1 ... 11.9
C=CCN1C[C@H](C)N([C@@H](c2ccc(C(=O)N3CCCCC3)cc2)c2cccc(OC)c2)C[C@H]1C ... 60.8
N#CC1=C(c2ccccc2)C(=C2Nc3ccccc3N2)C2S/C(=C\c3ccccc3)C(=O)N2C1=N (stereo not given) ... 50.5

Then there is this compound:
According to the records, this compound `CCSc1cc2c(cc1O)CC[C@@H]1[C@@H]2CC[C@]2(C)[C@@H](O)CC[C@@H]12` displays TGI of 21

Values from PubChem BioAssay (NCI)
